Test system: nitric oxide (NO) production in RAW264.7 macrophages stimulated by lipopolysaccharide
Experiment: NO inhibition assay (Griess method) in LPS-stimulated RAW264.7 cells
Format: cell-based
Conditions: calculated from CC50 and IC50
Where SI (selectivity index) equals or exceeds 10, the correct label is criterion met; where it does not, the label is criterion not met.

Here's what some known entries look like.
[[record]]
compound = "COc1ccc2c(c1)c(CC(=O)O)c(C)n2C(=O)c1ccc(Cl)cc1 [IND, indomethacin, reference compound]"
tested_target = "nitric oxide (NO) production in RAW264.7 macrophages stimulated by lipopolysaccharide"
label = "criterion met"

[[record]]
compound = "COC1=CC(=O)C=C(OC)C1=O"
tested_target = "nitric oxide (NO) production in RAW264.7 macrophages stimulated by lipopolysaccharide"
label = "criterion not met"

[[record]]
compound = "O=c1c(-c2ccc(O)cc2)coc2cc(O)ccc12"
tested_target = "nitric oxide (NO) production in RAW264.7 macrophages stimulated by lipopolysaccharide"
label = "criterion met"

[[record]]
compound = "COc1ccc([C@@H]2COc3cc(O)ccc3C2)c(O[C@@H]2O[C@H](CO)[C@@H](O)[C@H](O)[C@H]2O)c1 [Compound 15, (3R)-vestitol-2′-O-β-D-glucopyranoside]"
tested_target = "nitric oxide (NO) production in RAW264.7 macrophages stimulated by lipopolysaccharide"
label = "criterion not met"

[[record]]
compound = "O=C(/C=C/c1ccc(O)cc1)c1ccc(O)cc1O"
tested_target = "nitric oxide (NO) production in RAW264.7 macrophages stimulated by lipopolysaccharide"
label = "criterion met"


Now let's try a different one.
Check if SI (selectivity index) >= 10 (inclusive). Item: Oc1ccc2c(c1)OC[C@H](c1cc3c(cc1O)OCO3)[C@H]2O
criterion not met

All figures here come from paper PMC6832230.
